Value source: PubChem BioAssay AID1508591

assayContext: rat; liver microsomes; pH 7.4; 15.0 min; 1.0 µM
# note: boundary value 10 min maps to not satisfied; half-life below it maps to satisfied

Record excerpt, results attached:
CC(C)Oc1ccc(CNC(=O)C2CCN(C(=O)N3CCOc4ccc(Cl)cc43)CC2)cc1; satisfied
O=C(Nc1ccc(Nc2ccncc2)cc1)c1ccc(Nc2ccnc3ccc([N+](=O)[O-])cc23)cc1[N+](=O)[O-]; not satisfied
O=C(Nc1nnc(-c2cccs2)o1)c1ccc(Cl)cc1; satisfied
O=C(NCCc1ccc(OCC(F)(F)F)c(OCC(F)(F)F)c1)c1cc2sccc2n1Cc1ccccc1; satisfied
CC(C)NC(=O)c1nc(-c2ccc(Cl)nc2)c2ccccn12; not satisfied

Could you please tell me whether half-life recorded for CCN1C(=O)c2ccccc2[S@](=O)c2ccc(C(=O)NCc3ccc(C#N)cc3)cc21 is less than 10 min?
not satisfied

Lab log: compare recorded half-life with 10 min; is it strictly lower for COc1cc2nc(N3CCCC3)nc(NCCCCCN3CCCC3)c2cc1OC ?
not satisfied

Lab log: compare recorded half-life with 10 min; is it strictly lower for CCc1ccc(C2Sc3ccccc3NC3=C2C(=O)c2ccccc23)cc1 (stereo unspecified) ?
satisfied

Is half-life strictly under 10 min for the entry Cc1ccc(NS(=O)(=O)c2ccccc2C(=O)Nc2nc(-c3ccccc3)cs2)cc1 ?
not satisfied

Quick check: half-life of COc1ccc(-n2nc(C3CCCN(C(=O)Cc4ccc(F)cc4)C3)[nH]c2=O)cc1 (stereo unspecified) under 10 min?
satisfied

---

Entries and their half-life
assayContext: rat; liver microsomes; pH 7.4; 15.0 min; 1.0 µM

Worked cases, half-life given:
Cc1cc(C)nc(NC(=S)N2CCN(c3cccc(OC(F)F)c3)CC2)c1; > 30 min
CCOC(=O)Cc1ccc(NC(=O)n2ncc3cc(Cl)ccc32)cc1; 2.5 min
C[C@]12CC[C@@H]3[C@H](CCC4=CC(=O)CC[C@]43C)[C@]1(O)CC[C@@]2(O)C(=O)CO; 20.9 min
COc1ccc(C)cc1-n1nnnc1Sc1ncnc2scc(-c3ccc(Br)cc3)c12; 2.1 min
CCc1nc2c(sc3nc4c(cc32)COC(C)(C)C4)c(=O)n1Cc1ccco1; 6.88 min

Given NC(=O)c1sc2nc3c(c(-c4cccs4)c2c1N)CCCC3 , respond with its half-life.
2 min

# return recorded half-life for entry COc1ccc(NC(=O)c2ccccc2)cc1S(=O)(=O)Nc1ccc(Br)cc1
7.7 min

---

Readings of half-life for the listed compounds
assayContext: rat; liver microsomes; pH 7.4; 15.0 min; 1.0 µM
Quick reminder: number only, in min, skip the unit.

State, in one line, measured half-life of CCOc1ccc(N2CC(c3nc(-c4cc(OC)c(OC)c(OC)c4)no3)CC2=O)cc1 (stereo not given)
7.3

Name the recorded half-life of the item Cc1cccc(N2CCN(c3nc4ccccc4c4nnc(C)n34)CC2)c1C in your answer.
17.6

Look up half-life of CCCCN(CC)CCCNC(=O)c1ccc2c(c1)N(Cc1ccc(C)cc1)C(=O)c1ccccc1S2 and report it.
4.06

Using the record for Cc1cc(C)c(C(=O)Nc2cccc([S+](=O)([O-])Nc3ccc(Br)cc3)c2)[nH]1 , state its measured half-life.
7.7

---

assayContext: rat; liver microsomes; pH 7.4; 15.0 min; 1.0 µM
Examples of molecules with documented half-life follow.
Dear colleague, please return just the value in min, with no unit written.

Use these answered entries as a reference point.
NC(=O)C1CCN(c2nc(-c3ccc(N4CCCCC4)nc3)cs2)CC1; 17.2
CCOc1ccc(CCNC(=O)c2cc3cccnc3n2Cc2cccc(C)c2)cc1OCC; 1.7

Look up and state reported half-life for O=C1CCCC2=C1C(c1ccncc1Cl)N=C(Nc1nc3ccccc3o1)N2 (configuration not stated)
6.6

Fill in reported half-life for this entry: CC(C)c1ccccc1-c1ncc(F)c(NC(C)(C)c2ccc(-c3cccnc3)cc2)n1
2.3

Read off the recorded half-life for COc1ccc(C(=O)N[C@@H]2CCC[C@@H]2C(=O)N2CCC(Cc3ccccc3)CC2)cc1
2.66

Identify the reported half-life for the following entry. O=[S+]([O-])(Nc1ccccc1)c1ccc(NCc2cccc(C(F)(F)F)c2Cl)cc1
13

Find the measured half-life of COc1ccccc1NS(=O)(=O)c1cccc(NC(=O)c2[nH]c(C)c(C(C)=O)c2C)c1 and report it.
4.7

Retrieve half-life measured for O=C1Nc2ccc(-c3cccc(C(F)(F)F)c3)cc2C(=O)N2CCN(C(=O)COc3ccccc3)C[C@H]12 and print it.
5.73

Using the record for Cc1ccc(OCCn2c(CCNC(=O)c3ccc(Cl)cc3)nc3ccccc32)cc1 , state its measured half-life.
1.8

Assign half-life to the following record: Clc1ccccc1CSc1nc2ncc(Br)cc2[nH]1
6.5

Give reported half-life value for Cc1nc(Nc2n[nH]c3c2CN(C(=O)N[C@H](CN(C)C)c2ccccc2)C3(C)C)c2sccc2n1
21.9

Recall and state the measured half-life for CC(C)Nc1oc(-c2cccc3ccccc23)nc1C#N .
24

Recall and state the measured half-life for NC(=O)C1CCN(c2nc(-c3ccc(OC(F)(F)F)cc3)cs2)CC1 .
7.66

Specify reported half-life for the molecule shown: CN1CCN(C2=Nc3ccccc3Sc3ccc(Cl)cc32)CC1
1.11

Using the record for CCn1c(C)c(C(C)=O)c(C)c1C(=O)Nc1cccc([S+](=O)([O-])N(C)C)c1 , state its measured half-life.
6.5

Recall and state the measured half-life for CC(C)Oc1cccc(-c2cnc(N3CCC(C(N)=O)CC3)s2)c1 .
23

Identify measured half-life corresponding to Cc1sc(NC(=O)Cc2ccc3c(c2)OCO3)nc1-c1ccc2c(c1)CCN2C
5.5

Annotate the molecule Cc1cc(SCc2sc(-c3ccc(C(F)(F)F)c(F)c3)nc2C)ccc1OCC(=O)O with its measured half-life.
21

Give reported half-life value for COc1ccccc1-c1nnc2sc(-c3ccc(N(C)C)cc3)nn12
2.24

Specify half-life for CCOC(=O)c1ccc(N2C(=O)c3n[nH]c(-c4ccco4)c3C2c2ccc(C)cc2)cc1 (configuration not stated) and stop.
8.24

Annotate the molecule CN1C(=O)CN=C(c2ccc[nH]2)c2cc(Cl)ccc21 with its measured half-life.
16

Give the reported value of half-life for this record: CCCCCCOc1ccc(OC(=O)c2ccncc2)cc1
2.32

Supply measured half-life of Fc1ccc(-c2csc3ncnc(Sc4nnnn4-c4ccccc4)c23)cc1 in your reply.
1.6

Provide one value: measured half-life of COc1ccc(C(=O)N2CCC3(CC2)CN(c2cccc(-c4ccccc4)c2)C3)cc1
22

State its half-life: COc1ccc(C2c3c(ncn(CCN4CCOCC4)c3=N)Oc3ccc4ccccc4c32)cc1OC (configuration not stated)
3.6
